molecular target: UniProt:P29475
Sequence (P29475 whole entry): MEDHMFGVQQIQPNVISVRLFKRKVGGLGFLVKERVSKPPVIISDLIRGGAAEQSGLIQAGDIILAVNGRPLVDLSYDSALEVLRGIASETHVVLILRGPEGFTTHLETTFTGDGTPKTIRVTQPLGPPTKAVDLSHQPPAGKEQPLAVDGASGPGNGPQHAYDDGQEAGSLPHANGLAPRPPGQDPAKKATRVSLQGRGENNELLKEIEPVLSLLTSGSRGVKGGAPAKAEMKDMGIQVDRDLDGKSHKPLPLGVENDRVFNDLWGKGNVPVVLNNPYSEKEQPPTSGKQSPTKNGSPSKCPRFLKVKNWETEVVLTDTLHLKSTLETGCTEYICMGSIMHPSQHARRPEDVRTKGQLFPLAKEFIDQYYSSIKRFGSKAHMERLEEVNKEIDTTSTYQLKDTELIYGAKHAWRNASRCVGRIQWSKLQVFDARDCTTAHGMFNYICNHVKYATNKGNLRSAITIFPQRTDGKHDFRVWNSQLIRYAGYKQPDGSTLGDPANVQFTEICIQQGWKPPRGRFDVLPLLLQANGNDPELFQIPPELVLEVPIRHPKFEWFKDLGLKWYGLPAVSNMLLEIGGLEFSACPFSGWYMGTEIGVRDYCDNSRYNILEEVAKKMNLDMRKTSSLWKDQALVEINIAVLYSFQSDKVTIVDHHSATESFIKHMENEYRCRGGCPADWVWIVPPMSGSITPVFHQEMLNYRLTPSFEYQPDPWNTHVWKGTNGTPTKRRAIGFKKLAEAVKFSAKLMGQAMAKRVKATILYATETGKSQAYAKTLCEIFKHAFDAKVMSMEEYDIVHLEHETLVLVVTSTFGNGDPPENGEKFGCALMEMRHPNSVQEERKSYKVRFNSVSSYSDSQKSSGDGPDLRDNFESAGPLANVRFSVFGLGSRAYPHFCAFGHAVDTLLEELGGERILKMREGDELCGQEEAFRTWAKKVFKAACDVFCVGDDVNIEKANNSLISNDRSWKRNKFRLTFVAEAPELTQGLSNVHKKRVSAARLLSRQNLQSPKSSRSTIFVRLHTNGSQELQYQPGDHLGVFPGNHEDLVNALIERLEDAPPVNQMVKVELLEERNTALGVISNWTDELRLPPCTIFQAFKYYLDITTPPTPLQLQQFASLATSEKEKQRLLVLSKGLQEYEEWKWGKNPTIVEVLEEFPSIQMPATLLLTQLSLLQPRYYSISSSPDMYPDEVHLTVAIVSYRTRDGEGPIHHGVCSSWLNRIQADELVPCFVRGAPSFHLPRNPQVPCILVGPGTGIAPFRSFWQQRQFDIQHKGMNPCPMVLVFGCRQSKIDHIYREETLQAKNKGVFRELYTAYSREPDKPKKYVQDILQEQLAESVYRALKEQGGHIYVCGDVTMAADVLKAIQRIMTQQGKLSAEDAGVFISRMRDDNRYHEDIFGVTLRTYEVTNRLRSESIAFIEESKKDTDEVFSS
recorded-metric: Ki
Phrase the answer as number then unit, nothing more needed.

Q. Could you tell me which Ki is on file for CNCc1cncc(OCc2ccc3ccc(N)nc3c2)c1 ?
A. 0.507 µM

* * *

Biological target: UniProt:P29477
Sequence (P29477 whole entry): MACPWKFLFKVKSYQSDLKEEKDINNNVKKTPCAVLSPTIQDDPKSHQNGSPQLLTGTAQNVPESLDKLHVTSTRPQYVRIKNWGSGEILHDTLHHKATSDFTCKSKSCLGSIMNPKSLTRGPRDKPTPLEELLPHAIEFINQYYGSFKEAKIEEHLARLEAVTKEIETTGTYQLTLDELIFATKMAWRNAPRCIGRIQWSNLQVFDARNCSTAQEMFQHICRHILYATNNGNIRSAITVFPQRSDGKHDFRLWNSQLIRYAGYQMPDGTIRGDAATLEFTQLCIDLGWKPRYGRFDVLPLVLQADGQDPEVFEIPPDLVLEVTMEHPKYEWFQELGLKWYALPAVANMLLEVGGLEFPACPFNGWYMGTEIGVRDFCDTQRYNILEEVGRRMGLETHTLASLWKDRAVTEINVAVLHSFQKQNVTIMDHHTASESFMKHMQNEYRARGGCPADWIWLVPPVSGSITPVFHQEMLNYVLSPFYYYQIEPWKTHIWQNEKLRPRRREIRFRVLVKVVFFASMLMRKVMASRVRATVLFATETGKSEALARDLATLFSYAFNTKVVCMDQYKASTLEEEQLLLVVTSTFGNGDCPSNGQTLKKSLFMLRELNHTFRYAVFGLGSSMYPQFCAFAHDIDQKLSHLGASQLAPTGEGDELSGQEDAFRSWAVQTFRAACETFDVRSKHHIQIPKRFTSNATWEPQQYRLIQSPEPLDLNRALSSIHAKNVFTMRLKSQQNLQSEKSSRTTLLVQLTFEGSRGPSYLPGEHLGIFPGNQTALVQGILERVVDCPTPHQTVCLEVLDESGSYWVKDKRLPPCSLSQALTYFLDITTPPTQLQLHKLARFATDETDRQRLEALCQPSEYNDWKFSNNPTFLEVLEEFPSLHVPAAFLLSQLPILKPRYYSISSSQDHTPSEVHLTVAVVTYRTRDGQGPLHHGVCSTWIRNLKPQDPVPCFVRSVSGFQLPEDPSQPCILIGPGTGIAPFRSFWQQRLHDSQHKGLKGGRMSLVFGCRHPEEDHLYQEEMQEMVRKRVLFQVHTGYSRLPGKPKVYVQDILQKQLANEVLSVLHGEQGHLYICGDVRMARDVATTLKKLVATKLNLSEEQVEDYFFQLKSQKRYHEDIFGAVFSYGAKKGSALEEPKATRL
recorded-metric: pKi
Conceptually, pKi converts a concentration in mol/L into minus its log10.

compound | target-or-test-system | recorded-metric | readout-number
CNC(C)c1cccc(OCc2ccc3ccc(N)nc3c2)c1 (racemic) | UniProt:P29477 | pKi | 4.17

Alright, here's another compound for you.
Q. Dear colleague, I am looking for the recorded pKi of the following compound: CN(C)CCc1cccc(OCc2ccc3ccc(N)nc3c2)c1
A. 3.82

The origin of these recorded values is ChEMBL document CHEMBL3734753.
